Tested on: CAL-39 (Other Solid Carcinomas)
measurement.protocol: combination Emax (second highest fraction inhibited in the dose matrix, 72 h); higher = more inhibition; extreme values may be limits of the assay
Class assignment keyed on combination Emax, ranges lowest: < 0.5; middle: ≥ 0.5 and < 0.7; highest: ≥ 0.7

Problem: Form field 'band' for Cc1cc2ncnn2cc1Nc1ncc2c(n1)n(C1CCOCC1)c(=O)n2C [AZD7648] + C=CCn1c(=O)c2cnc(Nc3ccc(N4CCN(C)CC4)cc3)nc2n1-c1cccc(C(C)(C)O)n1 [AZD1775] (first compound max 10 µM, partner max 1 µM)
Solution: lowest

Problem: Which class holds CN(CCO)CC[C@H](CSc1ccccc1)Nc1ccc(S(=O)(=O)NC(=O)c2ccc(N3CCC([C@@H](O)c4ccccc4-c4ccc(Cl)cc4)CC3)cc2)cc1S(=O)(=O)C(F)(F)F [AZD4320] + CC(=O)O[C@H]1C(=O)[C@@]2(C)[C@H]([C@H](OC(=O)c3ccccc3)[C@]3(O)C[C@H](OC(=O)[C@H](O)[C@@H](NC(=O)c4ccccc4)c4ccccc4)C(C)=C1C3(C)C)[C@]1(OC(C)=O)CO[C@@H]1C[C@@H]2O [Paclitaxel] (first compound max 1 µM, 7x7, partner max 3 µM) ?
Solution: highest

Problem: Quick check: band for C[C@@H](Oc1cc(-c2cnn(C3CCNCC3)c2)cnc1N)c1c(Cl)ccc(F)c1Cl [Crizotinib] + CC1=C(C(=CC=C1)Cl)NC(=O)C2=CN=C(S2)NC3=CC(=NC(=N3)C)N4CCN(CC4)CCO [Dasatinib] (first compound max 10 µM, 7x7, partner max 2 µM)
Solution: highest

Problem: # bin label for CC1(C)CCC(CN2CCN(c3ccc(C(=O)NS(=O)(=O)c4ccc(NCC5CCOCC5)c([N+](=O)[O-])c4)c(Oc4cnc5[nH]ccc5c4)c3)CC2)=C(c2ccc(Cl)cc2)C1 [Venetoclax] + CN(C)CCCOc1ccc(-c2ccc3ncc4c(c3c2)n(C2CCOCC2)c(=O)n4C)cn1 [AZD0156] (first compound max 1 µM, 7x7, partner max 1 µM)
Solution: lowest

Problem: Assign a bin to Cc1c2c(nn1C)CSCc1cc(n(C)n1)CSc1cc(c3ccccc3c1)OCCCc1c(C(=O)O)n(C)c3c-2c(Cl)ccc13 [AZD5991] + Cc1cc2ncnn2cc1Nc1ncc2c(n1)n(C1CCOCC1)c(=O)n2C [AZD7648] (first compound max 1 µM, 7x7, partner max 10 µM)
Solution: middle

Problem: Given N#Cc1cnc(Nc2cc(NC[C@H]3CNCCO3)c(C(F)(F)F)cn2)cn1 [SRA737] + O=c1[nH]cc(F)c(=O)[nH]1 [5-Fluorouracil] (first compound max 10 µM, 7x7, partner max 20 µM) , name the class its combination Emax places it in.
Solution: lowest

Problem: Lab log: COc1nnc2ccc(N3CCC(c4ccc(OCCN5CCN(C)C(=O)[C@H]5C)cc4)CC3)nn12 [AZD5153] + Cn1cnc2c(F)c(Nc3ccc(Br)cc3Cl)c(C(=O)NOCCO)cc21 [Selumetinib] (first compound max 1 µM, 7x7, partner max 10 µM) — assign combination Emax category
Solution: highest

Problem: Returns: class label. Input: Cc1c2c(nn1C)CSCc1cc(n(C)n1)CSc1cc(c3ccccc3c1)OCCCc1c(C(=O)O)n(C)c3c-2c(Cl)ccc13 [AZD5991] + C=CCn1c(=O)c2cnc(Nc3ccc(N4CCN(C)CC4)cc3)nc2n1-c1cccc(C(C)(C)O)n1 [AZD1775] (first compound max 1 µM, partner max 1 µM)
Solution: middle

Problem: Place this compound in its band: Cc1cc2ncnn2cc1Nc1ncc2c(n1)n(C1CCOCC1)c(=O)n2C [AZD7648] + O=C(c1cc(Cc2n[nH]c(=O)c3ccccc23)ccc1F)N1CCN(C(=O)C2CC2)CC1 [Olaparib] (first compound max 10 µM, 7x7, partner max 10 µM)
Solution: lowest

Problem: # classify by combination Emax band: CN(CCO)CC[C@H](CSc1ccccc1)Nc1ccc(S(=O)(=O)NC(=O)c2ccc(N3CCC([C@@H](O)c4ccccc4-c4ccc(Cl)cc4)CC3)cc2)cc1S(=O)(=O)C(F)(F)F [AZD4320] + C1CN(CCC1(C(=O)N[C@@H](CCO)C2=CC=C(C=C2)Cl)N)C3=NC=NC4=C3C=CN4 [Capivasertib] (first compound max 1 µM, 7x7, partner max 3 µM)
Solution: lowest

Problem: Please indicate the class for CN(CCO)CC[C@H](CSc1ccccc1)Nc1ccc(S(=O)(=O)NC(=O)c2ccc(N3CCC([C@@H](O)c4ccccc4-c4ccc(Cl)cc4)CC3)cc2)cc1S(=O)(=O)C(F)(F)F [AZD4320] + Cn1cnc2c(F)c(Nc3ccc(Br)cc3Cl)c(C(=O)NOCCO)cc21 [Selumetinib] (first compound max 1 µM, 7x7, partner max 3 µM) based on its combination Emax.
Solution: middle

Problem: Could you place CC1(C)CCC(CN2CCN(c3ccc(C(=O)NS(=O)(=O)c4ccc(NCC5CCOCC5)c([N+](=O)[O-])c4)c(Oc4cnc5[nH]ccc5c4)c3)CC2)=C(c2ccc(Cl)cc2)C1 [Venetoclax] + Cn1cnc2c(F)c(Nc3ccc(Br)cc3Cl)c(C(=O)NOCCO)cc21 [Selumetinib] (first compound max 1 µM, 7x7, partner max 3 µM) in its proper category? Many thanks.
Solution: middle
